# TESTED SYSTEM: human mAChR M4 (Homo sapiens)
# Sequence (P08173 whole entry): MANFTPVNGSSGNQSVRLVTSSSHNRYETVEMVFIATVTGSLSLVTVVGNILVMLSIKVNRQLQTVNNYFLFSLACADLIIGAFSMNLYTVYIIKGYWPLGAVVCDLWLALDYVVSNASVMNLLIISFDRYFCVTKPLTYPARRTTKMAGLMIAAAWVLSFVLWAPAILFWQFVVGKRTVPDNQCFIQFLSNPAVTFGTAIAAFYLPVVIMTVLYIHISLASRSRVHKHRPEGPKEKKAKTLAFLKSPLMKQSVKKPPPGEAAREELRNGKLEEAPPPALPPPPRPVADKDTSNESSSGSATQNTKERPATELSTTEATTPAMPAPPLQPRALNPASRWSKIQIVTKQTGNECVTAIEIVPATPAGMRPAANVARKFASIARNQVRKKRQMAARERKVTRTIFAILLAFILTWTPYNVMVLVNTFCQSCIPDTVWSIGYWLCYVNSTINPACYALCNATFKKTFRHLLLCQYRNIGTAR
# ASSAY DETAILS: mAChR M4 cell-based functional assay (calcium flux, antagonism of EC80 acetylcholine response, M4/Gqi5/CHO-K1 cells)
# ASSAY CONTEXT: decrease of the response elicited by an EC80 concentration of acetylcholine; CHO-K1 cells, Gqi5
REPORTED METRIC: pIC50
pIC50 is a log-scale quantity: -log10 of the concentration expressed in molar.

// below: answered compounds
In plain terms, [2H]C([2H])(C1CC2(CC2)CO1)N1C[C@H]2C[C@H](Nc3ccc(-c4cccnc4C(F)(F)F)nn3)C[C@H]2C1 (stereo partly drawn) has a documented pIC50 of 9.16

In plain terms, [2H]C([2H])([C@H]1CCCOC1)N1C[C@H]2C[C@H](Nc3ccc(-c4cccnc4C(F)(F)F)nn3)C[C@H]2C1 has a documented pIC50 of 7.66

In plain terms, FC(F)(F)c1ncccc1-c1ccc(N[C@H]2C[C@@H]3CN(CC4CCOCC4)C[C@@H]3C2)nn1 has a documented pIC50 of 9.13

Others:
In plain terms, [2H]C([2H])(C1CCOCC1(C)C)N1C[C@H]2C[C@H](Nc3nnc(-c4cnccc4C(F)(F)F)cc3OC)C[C@H]2C1 (stereo partly drawn) has a documented pIC50 of 7.96

In plain terms, [2H]C1([2H])CC(C([2H])([2H])N2C[C@H]3C[C@H](Nc4ccc(-c5cnccc5C(F)(F)F)nn4)C[C@H]3C2)CC([2H])([2H])O1 has a documented pIC50 of 9.11

In plain terms, [2H]C([2H])([C@H]1CCCCO1)N1C[C@H]2C[C@H](Nc3ccc(-c4cccnc4C(F)(F)F)nn3)C[C@H]2C1 has a documented pIC50 of 9.26

In plain terms, [2H]C([2H])(C1CCOCC1)N1C[C@H]2C[C@H](Nc3ccc(-c4cccnc4C(F)(F)F)nc3)C[C@H]2C1 has a documented pIC50 of 8.06

In plain terms, [2H]C([2H])(C1CC(C)(C)OC(C)(C)C1)N1C[C@H]2C[C@H](Nc3ccc(-c4cccnc4C(F)(F)F)nn3)C[C@H]2C1 has a documented pIC50 of 7.83

In plain terms, [2H]C([2H])(C1CCOCC1)N1C[C@H]2C[C@H](Nc3nnc(-c4cccnc4C(F)(F)F)cc3C)C[C@H]2C1 has a documented pIC50 of 9.06

In plain terms, [2H]C([2H])(C1CCCOCC1)N1C[C@H]2C[C@H](Nc3ccc(-c4cnccc4C(F)(F)F)nn3)C[C@H]2C1 (stereo partly drawn) has a documented pIC50 of 8.57

In plain terms, [2H]C([2H])([C@@H]1CCCCO1)N1C[C@H]2C[C@H](Nc3ccc(-c4cccnc4C(F)(F)F)nn3)C[C@H]2C1 has a documented pIC50 of 9.06

In plain terms, [2H]C([2H])([C@H]1CCCOC1)N1C[C@H]2C[C@H](Nc3ccc(-c4cnccc4C(F)(F)F)nn3)C[C@H]2C1 has a documented pIC50 of 7.46
